Reference for the values: patent EP3818828A1

What Average Diameter of the Colony was measured for each of the following?
Tested on: F. oxysporum f. sp. vasinfectum
testMethodNotes: Ex vivo mycelial growth inhibition, growth rate method
Format: cell-based
conditionSet: 1 mg/mL
Description: […] The inhibition of samples for testing on the mycelial growth of plant pathogenic fungi for testing is determined with a growth rate method. […] 7 days later (10-20 days may be needed for some pathogenic fungi), the diameter of the colony is measured with a cross over method according to the mycelial growth profile of the control pathogenic fungi, then the inhibition rate of mycelial growth is calculated. […]
Express your answer in cm, writing the number without its unit.

[Q] Can you share its Average Diameter of the Colony? I mean this compound: O=C(/C=C/c1ccc2c(c1)OCO2)N1CCCCC1
[A] 0.40

[Q] Please look up its Average Diameter of the Colony: CCCNC(=O)/C=C/c1ccc2c(c1)OCO2
[A] 3.03

[Q] Need Average Diameter of the Colony, item COC(=O)Nc1nc2ccccc2[nH]1 [Carbendazim, carbendazim]
[A] 0.00
